experiment: Drug level in rat brain at 30 mg/kg, po after 2 hrs; type: ADME, organism-based; parameters: dose 30 mg/kg, route oral; settings: read-out: Drug uptake
Assay readout: concentration at 2 h

>>> df
                  compound_structure_string     result
0  COC[C@H]1CCCN1c1cc(NC(C)=O)nc(-n2nc(C)cc2C)n1  2020 ng/g

====

Entries and their measured Ratio Ki follow.
organism: Homo sapiens; assay: Selectivity ratio of Ki for human adenosine A1 receptor to Ki for human adenosine A2A receptor
Assay readout: Ratio Ki

>>> print(df.to_string())
                                   compound  result
0  CCC(=O)Nc1cc(N2CCC[C@@H]2COC)nc(-n2nc(C)cc2C)n1      11
1  COC[C@H]1CCCN1c1cc(NC(C)=O)nc(-c2ccc(C)o2)n1       4
2  CC(=O)Nc1cc(N2CCc3ccccc3C2)nc(-n2nc(C)cc2C)n1      77
3  COCCC1CCCCN1c1cc(NC(C)=O)nc(-n2nc(C)cc2C)n1 (single isomer, unassigned)      17
4   COC[C@H]1CCCN1c1cc(N)nc(-n2nc(C)cc2C)n1     9.5

====

Target protein (sequence): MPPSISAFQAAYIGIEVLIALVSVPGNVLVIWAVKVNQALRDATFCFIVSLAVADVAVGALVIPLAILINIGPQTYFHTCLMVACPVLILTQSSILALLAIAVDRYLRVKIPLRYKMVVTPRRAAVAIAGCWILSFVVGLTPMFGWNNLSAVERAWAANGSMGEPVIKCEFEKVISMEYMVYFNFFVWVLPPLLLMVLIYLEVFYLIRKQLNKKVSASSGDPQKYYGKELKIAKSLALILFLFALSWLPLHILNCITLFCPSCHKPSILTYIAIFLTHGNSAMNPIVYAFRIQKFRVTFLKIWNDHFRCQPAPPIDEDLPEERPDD
Assay readout: Ki (nM)

>>> df
                                   molecule  readout_number
0  COC[C@H]1CCCN1c1cc(NC(=O)CC(C)C)nc(-n2nc(C)cc2C)n1              92
1  COC[C@H]1CCCN1c1cc(NC(C)=O)nc(-c2ccc(C)o2)n1            10.5
2  COCCC1CCCCN1c1cc(NC(C)=O)nc(-n2nc(C)cc2C)n1 (single isomer, unassigned)            4690
3  CCOCC1CCCN1c1cc(NC(C)=O)nc(-n2nc(C)cc2C)n1 (stereo not given)            4190
4  COC[C@@H]1CCCN1c1cc(NC(C)=O)nc(-c2nccs2)n1             354
5  CC(=O)Nc1cc(N2CCCC2=O)nc(-n2nc(C)cc2C)n1             913
6  CC(=O)Nc1cc(N2CCC[C@H]2COc2ccccn2)nc(-n2nc(C)cc2C)n1           12100
7  COC[C@@H]1CCCN1c1cc(NC(C)=O)nc(-c2ccc(C)o2)n1             215
8  COC[C@H]1CCCN1c1cc(NC(C)=O)nc(-c2nccs2)n1             150
9  CC(=O)Nc1cc(N2CCCC2CO)nc(-n2nc(C)cc2C)n1 (single isomer, unassigned)            1530
